target: human mAChR M1 (Homo sapiens); experiment: mAChR M1 cell-based functional assay (calcium mobilization), agonist mode: compound alone, Emax relative to acetylcholine maximum; conditions: relative to the maximum for acetylcholine
Sequence (P11229 whole entry): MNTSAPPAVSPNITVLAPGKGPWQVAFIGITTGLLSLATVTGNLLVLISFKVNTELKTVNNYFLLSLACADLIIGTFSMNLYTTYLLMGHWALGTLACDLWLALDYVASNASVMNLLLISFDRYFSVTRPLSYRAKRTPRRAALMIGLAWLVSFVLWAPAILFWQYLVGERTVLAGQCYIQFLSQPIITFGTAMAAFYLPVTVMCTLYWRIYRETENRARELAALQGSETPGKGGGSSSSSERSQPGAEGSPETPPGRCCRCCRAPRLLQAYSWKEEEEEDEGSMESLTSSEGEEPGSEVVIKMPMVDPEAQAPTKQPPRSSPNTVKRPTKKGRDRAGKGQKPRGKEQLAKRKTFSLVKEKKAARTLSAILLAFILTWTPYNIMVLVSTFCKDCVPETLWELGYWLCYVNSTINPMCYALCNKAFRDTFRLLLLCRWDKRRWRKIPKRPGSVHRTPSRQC
List of Emax values.
Write the value in % as a bare number.

Solved entries (count: 3):
[2H]C1([2H])c2ncccc2C(=O)N1Cc1c(F)cc(-c2cc(F)cc3c2cnn3C([2H])([2H])[2H])cc1F ... 2
[2H]C1([2H])c2ncccc2C(=O)N1Cc1c(F)cc(-c2cn(C)c(=O)c3c2cnn3C([2H])([2H])[2H])cc1F ... 2
[2H]C1([2H])c2ncccc2C(=O)N1Cc1c(F)cc(-c2cc(F)c(F)c3nn(C)cc23)cc1F ... 2

Req: For [2H]C1([2H])c2ncccc2C(=O)N1Cc1ccc(-c2cccc3nn(C)cc23)cc1C(C)C , what is its reported Emax?
Resp: 1

Req: For [2H]C1([2H])c2ncccc2C(=O)N1Cc1c(F)cc(-c2cccc3nn(C([2H])([2H])[2H])cc23)cc1Cl , what is its reported Emax?
Resp: 6

Req: For [2H]C1([2H])c2ncccc2C(=O)N1Cc1c(F)cc(-c2cccc3nn(C)cc23)cc1OCC(C)C , what is its reported Emax?
Resp: 14

Req: For [2H]C1([2H])c2ncccc2C(=O)N1Cc1c(F)cc(-c2ccc(OCCOC(C)C)c3nn(C)cc23)cc1F , what is its reported Emax?
Resp: 26

Req: For [2H]C1([2H])c2ncccc2C(=O)N1Cc1c(F)cc(-c2ccc(C)c3nn(C([2H])([2H])[2H])cc23)cc1F , what is its reported Emax?
Resp: 2

These measurements were taken from patent US20240228489A1.
